Measured viability, T/C accompanies every entry in the list below.
Test system: LG0567-F671-PDC complex spheroids viability;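 also: spheroids exposed to compound for seven days before readout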
Test: Anticancer human tumor LG0567-F671-PDC patient-derived lung adenocarcinoma cell line growth inhibition [RAS]
Conditions: second compound 0.000949 µM; first compound 0.1 µM; hits give low values

- Compound: "CC(C)NCC(C(=O)N1CCN(c2ncnc3c2C(C)CC3O)CC1)c1ccc(Cl)cc1 (stereo not given) + CCn1c(-c2cccnc2C(C)OC)c2c3cc(ccc31)N1CCOC(CC(NC(=O)C(C(C)C)N(C)C(=O)C3(F)CCN(C(=O)C#CC(C)(C)N(C)C)CC3)C(=O)N3CCCC(N3)C(=O)OCC(C)(C)C2)C1"
  System under test: "LG0567-F671-PDC complex spheroids viability"
  viability, T/C: "13.7%"
- Compound: "O=C(c1ccc(F)c(F)c1Nc1ccc(I)cc1F)N1CC(O)([C@@H]2CCCCN2)C1 + CCn1c(-c2cc(N3CCN(C)CC3)cnc2C(C)OC)c2c3cc(ccc31)-c1csc(n1)CC(NC(=O)C1CC1C)C(=O)N1CCCC(N1)C(=O)OCC(C)(C)C2"
  System under test: "LG0567-F671-PDC complex spheroids viability"
  viability, T/C: "6.2%"
- Compound: "CC(Nc1ccc2c(c1)OCCn1cc(N3C(=O)OCC3C(F)F)nc1-2)C(N)=O (stereo not given) + CCn1c(-c2cc(N3CCN(C)CC3)cnc2C(C)OC)c2c3cc(ccc31)-c1csc(n1)CC(NC(=O)C1CC1C)C(=O)N1CCCC(N1)C(=O)OCC(C)(C)C2"
  System under test: "LG0567-F671-PDC complex spheroids viability"
  viability, T/C: "12.9%"
- Compound: "CCN1CCN(Cc2ccc(Nc3ncc(F)c(-c4cc(F)c5nc(C)n(C(C)C)c5c4)n3)nc2)CC1 + CCn1c(-c2cccnc2C(C)OC)c2c3cc(ccc31)N1CCOC(CC(NC(=O)C(C(C)C)N(C)C(=O)C3(F)CCN(C(=O)C#CC(C)(C)N(C)C)CC3)C(=O)N3CCCC(N3)C(=O)OCC(C)(C)C2)C1"
  System under test: "LG0567-F671-PDC complex spheroids viability"
  viability, T/C: "14.7%"
- Compound: "C=CC(=O)N1CCN(c2nc(OCC3CCCN3C)nc3c(F)c(-c4nc(N)cc(C)c4C(F)(F)F)c(Cl)cc23)C(C)C1 (stereo not given) + CCn1c(-c2cccnc2C(C)OC)c2c3cc(ccc31)N1CCOC(CC(NC(=O)C(C(C)C)N(C)C(=O)C3(F)CCN(C(=O)C#CC(C)(C)N(C)C)CC3)C(=O)N3CCCC(N3)C(=O)OCC(C)(C)C2)C1"
  System under test: "LG0567-F671-PDC complex spheroids viability"
  viability, T/C: "14.4%"

Cited source: PubChem BioAssay AID2060889
